Test system: HACAT keratinocytes
Experiment: Inhibition of TGFa- or EGF-specific proliferation of HACAT keratinocytes (3H-thymidine incorporation)
Assay type: cell-based
Settings: test 1: HaCaT cells stimulated with recombinant human TGFa or EGF, two days
Method: 1. Inhibition of TGFa- or EGF-specific proliferation of HACAT keratinocytes: The spontaneously immortalized aneuploid human keratinocyte HaCaT cell line, which has a transformed phenotype in vitro but remains non-tumorigenic, is grown in DMEM H21 medium supplemented with 5 % FCS and 2.5 % glutamine. […] 3 times and trichloroacetic acid twice, solubilized in 100 µl of 0.1 N NaOH containing 1 % SDS, and radioactivity is counted. Inhibition of cell proliferation is expressed as % of the control.
observable: pIC50
Numbers only, as −log10 of the molar value.

Provide HACAT keratinocytes pIC50 reading for O=c1c(-c2ccc(O)cc2)coc2cc(O)cc(O)c12 .
5.30
